What MED microcirculation was measured for each of the following?
test system: diabetic (ZDFfa/fa) and healthy rats (Wistar); assay: Assay of perfusion-enhancing substances (microcirculation), laser doppler probe at the paw; format: in vivo, rat; conditions: minimum effective dose with significantly improved microcirculation vs placebo; single oral dose, 30 min after administration
Just the number in mg/kg, nothing appended.

Let me check: O=C(c1ccc(N2CCS(=O)(=O)CC2)nc1)N1CCC(N2CCc3ccccc3C2)CC1 [Example 4] , system diabetic (ZDFfa/fa) and healthy rats (Wistar), measured MED microcirculation is 0.1

Bench note, diabetic (ZDFfa/fa) and healthy rats (Wistar): COCCNc1ccc(C(=O)N2CCC(N3CCc4ccccc4C3)CC2)cn1 [Example 1] , MED microcirculation reads 1

# value of MED microcirculation, diabetic (ZDFfa/fa) and healthy rats (Wistar), item O=C(c1ccc(N2CC3(COC3)C2)nc1)N1CCC(N2CCc3ccccc3C2)CC1 [Example 10] = 0.03

Reported diabetic (ZDFfa/fa) and healthy rats (Wistar) MED microcirculation for item COC[C@@]1(C)CCCN2CCc3c(oc4ccccc34)[C@@H]21 [ORM-12741, reference compound] was 0.1
